# EXPERIMENTAL DETAILS: binders of probe aHhip on microarray, primary screen, stem cell growth factor project, biochemical, small-molecule microarray, fluorescence 635/667 (AID 1087);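 note: score merges spot fluorescence at 667nm with spot signal to noise ratio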
# TEST CONTEXT: higher = more signal
I'd be grateful if you could share measured composite z-score for these entries.
// response body must contain only the number

NC(=O)NCC#Cc1ccc2c(c1)[C@]1(C(=O)N2)[C@H](C(=O)N2CCN(c3ncccn3)CC2)[C@H]2C(=O)O[C@H](c3ccccc3)[C@H](c3ccccc3)N2[C@@H]1c1ccc(OCCO)cc1 has a reported composite z-score of 0.0659

Recorded result, CC1CC/C=C\[C@H]2OC34C=CCN(CCN5CCOCC5)C(=O)[C@H]3N(C(C)CO)C(=O)[C@@H]4C2C(=O)O1 (stereo partly specified) , composite z-score: -0.0672

Looking up C=CCC(OC(C)=O)[C@@H]1[C@@H](N(Cc2ccc(-c3cccc(C(F)(F)F)c3)o2)C(=O)c2ccc(C)cc2)c2cc(OCCCO)ccc2N1C(=O)Cc1ccc(OC)cc1 (stereo partly specified) , I see its composite z-score listed as 0.0373

Summary for this compound, COc1ccc([Si](C)(C)[C@H]2[C@H](CC(=O)N3CCC[C@H]3CO)O[C@@]3(C(=O)N(Cc4ccc(N5CCC5=O)cc4)c4ccccc43)[C@@H]2C)cc1 : composite z-score is -0.215

Record CC(C)C[C@@H]1NC(=O)[C@H]2C[C@@H](C(=O)NCCCCCN)[C@@H](c3cccc(OCCO)c3)N2C1=O . Reported composite z-score: -0.0645

Reported composite z-score for O=C1C2C=CC(C(O)c3cccc(O)c3)N(Nc3ccccc3)C2C(=O)N1c1ccccc1 (stereo unspecified) was -0.0003

---

# EXPERIMENTAL DETAILS: MM1S myeloma cell viability, profiling panel, resazurin fluorescence, basal, 24 h, PK04 Diversity Set (AID 1174);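 note: MM1S multiple myeloma cell line; test concentration not given here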
# TEST CONTEXT: higher = more signal, called active from +8 up or from −8 down
Threshold check on z-score: at or above -1 gives Met, strictly below gives Not met.

Q: Is reported z-score greater than or equal to -1 here: COc1cc2c(cc1OC)CN(C(=O)[C@@H]1[C@H]3C(=O)O[C@H](c4ccccc4)[C@H](c4ccccc4)N3[C@H](c3ccc(O)cc3)[C@@]13C(=O)Nc1ccc(C#CCCO)cc13)CC2
A: Not met

Q: Say whether [N-]=[N+]=Nc1ccccc1C[C@]1(C(=O)O)N=C(c2ccc(OCCCO)cc2)O[C@H]1c1ccccc1 shows z-score of -1 or more.
A: Not met

Q: Is reported z-score greater than or equal to -1 here: COc1ccc(C#Cc2ccc3c(c2)[C@]2(C(=O)N3)[C@H](c3ccc(OCCO)cc3)N3[C@H](c4ccccc4)[C@H](c4ccccc4)OC(=O)[C@H]3[C@@H]2C(=O)N2CCc3cc(OC)c(OC)cc3C2)cc1
A: Met

Q: Say whether C=C(COC)/C(=C/C[C@@H](OC(=O)c1ccncc1)c1ccccc1OCCO)c1cc(C(=O)OC)ccc1OC shows z-score of -1 or more.
A: Not met

Q: # check: z-score of COc1cccc(/C=C(\C#N)C(=O)Nc2c(C)n(C)n(-c3ccccc3)c2=O)c1 is greater than or equal to -1
A: Not met

Q: Hello, I need to know if COc1ccc([Si](C)(C)[C@H]2[C@H](CCO)O[C@@]3(C(=O)N(Cc4ccccc4)c4ccc(N5CCOC5=O)cc43)[C@@H]2C)cc1 has measured z-score not below -1. Thanks!
A: Not met

Q: Check this compound for z-score at or above -1: COCCOC(=O)N1C(=O)[C@@]2(c3cc(C#CCCO)ccc31)[C@H](C(=O)N1CCCCCCC1)[C@H]1C(=O)O[C@H](c3ccccc3)[C@H](c3ccccc3)N1[C@@H]2c1ccccc1OCCO
A: Met
